- System under test: T1, human IL-18BP (human, UniProt O95998 31-194)
- T1 construct: UniProt printed as 095998; also called hIL-18BP
- T1 sequence: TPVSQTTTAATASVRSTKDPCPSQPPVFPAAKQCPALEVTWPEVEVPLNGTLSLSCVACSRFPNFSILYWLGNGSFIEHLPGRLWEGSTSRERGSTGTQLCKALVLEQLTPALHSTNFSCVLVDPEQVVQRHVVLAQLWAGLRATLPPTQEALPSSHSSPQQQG
- Test method notes: BLI, apparent KD
Assay metric: pKd
pKd is defined as minus the log10 of a concentration measured in mol/L.

Below: 2 binders and their reported pKd.
{"columns": ["Binder", "pKd"],
 "data": [
  ["SA301a LC-S93Q (antibody, V domains shown) VH: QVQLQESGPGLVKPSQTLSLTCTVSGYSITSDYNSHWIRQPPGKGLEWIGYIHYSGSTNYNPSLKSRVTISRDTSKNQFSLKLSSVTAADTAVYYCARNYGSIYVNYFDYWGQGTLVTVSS VL: EIVLTQSPATLSLSPGERATLSCSASSSVSYMYWYQQKPGQAPRPLIYRTSNLASGIPARFSGSGSGTDFTLTISSLEPEDFAVYYCQQYHQYPTFGGGTKVEIK", 9.62],
  ["SA301a LC-Q89E (antibody, V domains shown) VH: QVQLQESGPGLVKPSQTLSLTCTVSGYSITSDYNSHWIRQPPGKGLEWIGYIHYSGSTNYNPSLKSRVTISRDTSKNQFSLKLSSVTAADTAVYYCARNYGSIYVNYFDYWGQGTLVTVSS VL: EIVLTQSPATLSLSPGERATLSCSASSSVSYMYWYQQKPGQAPRPLIYRTSNLASGIPARFSGSGSGTDFTLTISSLEPEDFAVYYCEQYHSYPTFGGGTKVEIK", 9.34]
]}

Kindly review the next binder as well.
Bench note: what pKd did SA301a LC-Y91A (antibody, name in Kabat numbering, V domains shown, IgG1 kappa) VH: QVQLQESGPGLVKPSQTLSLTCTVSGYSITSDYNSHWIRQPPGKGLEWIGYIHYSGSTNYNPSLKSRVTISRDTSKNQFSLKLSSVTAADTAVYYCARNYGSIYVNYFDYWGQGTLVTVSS VL: EIVLTQSPATLSLSPGERATLSCSASSSVSYMYWYQQKPGQAPRPLIYRTSNLASGIPARFSGSGSGTDFTLTISSLEPEDFAVYYCQQAHSYPTFGGGTKVEIK show?
8.97
